Numbers sourced from PubChem BioAssay (NCI).

- experiment description: NCI Yeast Anticancer Drug Screen. Data for the rad50 strain (AID 155);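 further: 0% = growth of vehicle-only cultures of the same strain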
- test context: S. cerevisiae rad50 strain growth inhibition; at 50.0 µM; hits give high values
About 79,000 compounds went through this panel and 15% of them were active in at least one assay; those are over-represented in the sample as a whole.
growth inhibition by entry:
Write it as a number; the unit % goes unstated.

Example entries and their recorded answers appear below.
compound=O=[N+]([O-])c1ccc(N/N=C(\Cc2ccccc2)c2ccccc2)c([N+](=O)[O-])c1 experimental_value=6.8
compound="OC1CSc2ccccc2-n2cccc21 (configuration not stated)" experimental_value=25.8
compound=c1ccc(SCc2ccc3c(c2)OCO3)cc1 experimental_value=27.4
compound=O=C(NNC(=O)c1ccc(Cl)cc1Cl)c1ccccc1 experimental_value=-13.8

Next, consider the following compound.
Ask | For the compound NC(=S)NNC(N)=S , give its reported growth inhibition.
Reply | 2.2

====

- experiment description: NCI Yeast Anticancer Drug Screen. Data for the sgs1 mgt1 strain (AID 161);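 further: 0% = growth of cultures given vehicle only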
- test context: S. cerevisiae sgs1 mgt1 strain, at 50.0 µM, hits give high values
The panel holds about 79,000 compounds, 15% with a hit somewhere; the sample as a whole holds those more often.
The label depends only on growth inhibition: TRUE if it is at least 10%, FALSE if it is smaller.

Worked set:
molecule=ClSC(c1ccccc1)(c1ccccc1)c1ccccc1 assigned_label=TRUE
molecule=Cn1c2cc3ccccc3cc2nc2cc3c(cc21)c(Cl)c(=O)c1ccccc13 assigned_label=TRUE
molecule=COc1ccccc1N=Nc1c(C)nc(N)nc1-c1ccccc1 assigned_label=TRUE
molecule="O=C(O)C(Oc1ccc(Cl)cc1Cl)C(Oc1ccc(Cl)cc1Cl)C(=O)O (stereo not drawn)" assigned_label=FALSE
molecule="O=C(O)C(C(=O)O)C(O)c1c2ccccc2cc2ccccc12 (stereo not drawn)" assigned_label=FALSE
molecule=CC(/C=N/Nc1ccccc1)=N\N=c1/scc(-c2ccc(Cl)cc2)n1-c1ccc(Cl)cc1 assigned_label=TRUE
molecule=Cc1ccc(C)c2nc3c(C)ccc(C)c3cc12 assigned_label=TRUE
molecule="CC(=O)OCC1OC(Nc2[nH]c(=O)[nH]c(=O)c2N=O)C(OC(C)=O)C(OC(C)=O)C1OC(C)=O (stereo not drawn)" assigned_label=FALSE
molecule="COC(=O)c1ccccc1CC1Cc2c(C)ccc(C)c2C1=O (stereo not drawn)" assigned_label=FALSE
molecule="CC(=O)OCC1OC(n2ncnc2CI)C(OC(C)=O)C(OC(C)=O)C1OC(C)=O (stereo not drawn)" assigned_label=TRUE

Ask | For this molecule, is measured growth inhibition 10% or higher? CC(=O)C1C(=O)C(=O)N(c2ccccc2C(C)C)C1=O (stereo not drawn)
Reply | TRUE

Ask | Does O=c1cc(C=Nc2ccc(-c3csc(-c4ccccc4)n3)cc2)[nH]c(=S)[nH]1 have a reported growth inhibition of at least 10%?
Reply | TRUE

Ask | Could you tell me if the measured growth inhibition of CCCCCCCCCC1OCC(COCC)O1 (stereo not drawn) reaches 10% or more?
Reply | FALSE

Ask | Quick check, growth inhibition >= 10%? S=C(SNC1CCCCC1)SNC1CCCCC1
Reply | FALSE

====

- experiment description: NCI Yeast Anticancer Drug Screen. Data for the mec2-1 strain (AID 157)
- test context: S. cerevisiae mec2-1 strain, at 50.0 µM, hits give high values
The panel holds about 79,000 compounds, 15% with a hit somewhere; the sample as a whole holds those more often. *1 amine or outer side, *2 acyl side, *3 side chain or, on linkers, in order; H or OH if unused. Where a SMILES comes first, the peptide text is derived from it. Bridges are numbered along the chain shown (N, C = ends). Roman numbers before positions name the chains, in order. [ ]: non-standard residue; d: D form. Actinocin(1to9) = Cc1c2oc3c(C)ccc(C(=O)[*:2])c3nc-2c(C(=O)[*:1])c(N)c1=O; NMeY = CN[CH](Cc1ccc(O)cc1)C(=O)O; Sar = CNCC(=O)O
value kind: growth inhibition (%)
Provide only the numeric value, understood in %.

molecule=CCN(CC)c1ncnc2c1nc(C)n2Nc1ccccc1 unit_of_measure=% experimental_value=-3.1
molecule="CCOC(=O)N1C2C=C(C)C(ON2C(=O)c2ccccc2)C2C(C)C(=O)N21 (stereo not given)" unit_of_measure=% experimental_value=-10.7
molecule="COc1ccc(CC(N)C(=O)OC(C)C)cc1 (stereo not given)" unit_of_measure=% experimental_value=-12.3
molecule=Cc1n[nH]c(=S)n1C unit_of_measure=% experimental_value=-6.05
molecule=CN(NC1=NCCO1)c1ccc2ccccc2c1 unit_of_measure=% experimental_value=-22.4

Ask | Tell me its growth inhibition given NC(N)=N/N=C(\c1ccc(Cl)cc1)C1CC1 as the entry.
Reply | -5.05

Ask | Provide one value: measured growth inhibition of CCCCOC(OCCCC)C(C)(C)CN(C)C
Reply | 13.2

Ask | Using known records, supply growth inhibition for O=C(O)CN1C(=O)NC(C2CC2)(C2CC2)C1=O
Reply | -7.15

Ask | Supply reported growth inhibition belonging to this molecule: Nc1ncc2c(n1)SCC2
Reply | -5.8

Ask | Answer with the recorded growth inhibition of O=C(Nc1ccccc1[N+](=O)[O-])Oc1ccc(-c2ccccc2)cc1 only.
Reply | 5.75

Ask | Please report growth inhibition for the following molecule: CCCCC(O)(CCCC)CC(C)(C)C
Reply | 1.6

Ask | Provide only the value of recorded growth inhibition for Cc1ccc(NC(=O)Oc2ccc(Br)cc2Br)c(Cl)c1
Reply | 17.9

Ask | State its growth inhibition: Cc1ccc2cccc(OC(=O)Nc3cc(Cl)c(Cl)cc3Cl)c2n1
Reply | -17.8

Ask | Given the molecule CNC(CCc1ccccc1)C(=O)O (stereo not given) , write its reported growth inhibition.
Reply | -1.25

Ask | Query growth inhibition for O=c1[nH]ncc(N/N=C(/C=C/c2ccc(C/C(=N/Nc3cn[nH]c(=O)c3Cl)c3ccccc3)cc2)c2ccccc2)c1Cl
Reply | 8.8

Ask | Tell me growth inhibition reported for CCOc1ccc(NC(=O)COc2ccc(Cl)cc2Cl)cc1
Reply | 22.3

Ask | Let me know recorded growth inhibition for N#Cc1nc(COCc2ccccc2)oc1N , thanks.
Reply | -12.5

Ask | Look up and state reported growth inhibition for Oc1cc(N2CCCC2)ccc1/C=N/N1C(=S)N(c2ccccc2)C(=Nc2ccccc2)C1=Nc1ccccc1
Reply | -31.8

Ask | Identify measured growth inhibition corresponding to O=c1[nH]c(Nc2cccc(Br)c2)nc2nc[nH]c12
Reply | -8.65

Ask | Supply measured growth inhibition of COc1ccc(CC2C(=O)OC(C)C(NC(=O)c3c4nc5c(C(=O)NC6C(=O)NC(C(C)C)C(=O)N7CCCC7C(=O)N(C)CC(=O)N(C)C(Cc7ccc(OC)cc7)C(=O)OC6C)ccc(C)c5oc-4c(C)c(=O)c3N)C(=O)NC(C(C)C)C(=O)N3CCCC3C(=O)N(C)CC(=O)N2C)cc1 (stereo not given) (I: TVP[Sar][NMeY](Me) / II: TVP[Sar][NMeY](Me); ester I:1-I:C, II:1-II:C; linker I:N-II:N via Actinocin(1to9); configuration not given here) in your reply.
Reply | -3.65

Ask | Fill in growth inhibition for record O=S(=O)(N/N=C(/CC/C(=N\NS(=O)(=O)c1ccccc1)c1ccccc1)c1ccccc1)c1ccccc1
Reply | 5.2

Ask | Report growth inhibition, nothing else, for this molecule: COc1ccc(C2c3cc4c(cc3OC3(O)CCCC(=O)C23)OCO4)cc1 (stereo not given)
Reply | 15.3

====

- experiment description: NCI Yeast Anticancer Drug Screen. Data for the bub3 strain (AID 167)
- test context: S. cerevisiae bub3 mutant strain, at 50.0 µM, hits give high values
Compounds without any hit were thinned out: in the full panel of roughly 79,000, 15% have a hit.
value kind: growth inhibition (%)
Only the number, expressed in %, is required.

// worked examples, growth inhibition included
compound=O=C(Cc1ccccn1)c1cccnc1 unit_of_measure=% experimental_value=-17
compound=COC(=O)/C=C(\C(=O)OC)c1cc(C)c2cc(C(C)C)ccc(C)c1-2 unit_of_measure=% experimental_value=-7.5
compound="CC1CCCCN1Cc1ccccc1COC(=O)c1ccc([N+](=O)[O-])cc1 (configuration not stated)" unit_of_measure=% experimental_value=4.05
compound="CCOC(=O)N1CC(C)N(C(=O)OCC)CC1C (configuration not stated)" unit_of_measure=% experimental_value=33.8
compound=Clc1ccc(N=Cc2ccccc2)cn1 unit_of_measure=% experimental_value=6.55
compound="COC(=O)/C(=N/NC(N)=O)C(C(=O)OC)C(=O)C(=O)Nc1ccc(Cl)cc1 (configuration not stated)" unit_of_measure=% experimental_value=-14.4
compound="C/C=C/COc1cc2c(cc1C(C)c1ccc(OC)cc1)OCO2 (configuration not stated)" unit_of_measure=% experimental_value=-3.85
compound=Cc1ccc(CCCC(N)=O)cc1 unit_of_measure=% experimental_value=-2.15

Ask | Give reported growth inhibition value for CCOC(=O)c1c[nH]c(=S)[nH]c1=O
Reply | -1.2

Ask | Note down growth inhibition recorded for CC(=O)Nc1ccc2c(c1)C(=O)c1ccc(S(C)(=O)=O)cc1-2
Reply | -0.85

Ask | Name the recorded growth inhibition of the compound listed here: CC(=O)N(c1ccccc1)c1ccccc1
Reply | -0.2

Ask | Give reported growth inhibition value for CCCCCN(CCCCC)C(=S)[S-].CCCCCN(CCCCC)C(=S)[S-].[Zn]
Reply | 42.1
